test system: HCT116 (human colon carcinoma cell line); assay: MTT assay cytotoxicity, HCT116; format: cell-based; settings: 72 h exposure
measuredProperty: pIC50
Schema: pIC50 number; meaning minus log10 of the concentration expressed in molar units.

IN: Bench note: what pIC50 did O=C1[O][Pt]2([NH][C@@H]3CCCC[C@H]3[NH]2)[O]C1=O [Oxaliplatin, oxaliplatin, reference compound] show?
OUT: 7.00

IN: Bench note: what pIC50 did Clc1cc(-c2ccccn2)nc(-c2ccccn2)c1.NC1CCCCC1N.[Cl-].[Cl-].[Ru+2] [Ru-2, [Ru(Cl-tpy)(dach)Cl][Cl]] show?
OUT: 4.69

IN: Bench note: what pIC50 did Clc1cc(-c2ccccn2)nc(-c2ccccn2)c1.NCCN.[Cl-].[Cl-].[Ru+2] [Ru-1, [Ru(Cl-tpy)(en)Cl][Cl]] show?
OUT: 4.72
